Assignment: determine reported protein stability index for the given variants.
B1: ZBTB22 (parent)
chain: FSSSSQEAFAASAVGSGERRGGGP

# Variants of: B1
# ASSAY INFO: protein stability index of a GFP-peptide fusion (GPS, HEK-293T) (PSI 1-6); higher = more stable;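 also: lentivirally expressed fusions sorted by FACS into six bins by GFP to DsRed ratio, PSI derived from sequencing read proportions per bin multiplied by bin number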
# TEST SETTINGS: c terminus: a fixed tail appended
Just the number, please.

Qu. For `E7D` , what is its reported protein stability index?
Ans. 3.99

Qu. Entry to check: `A8R`
Ans. 3.96

Qu. Entry to check: `G15A`
Ans. 3.09

Qu. Entry to check: `A13W`
Ans. 3.02
